Test system: HeLa
Assay: Cytotoxicity against human HeLa cells at 10 uM by MAGI assay
Format: cell-based
experimentalReadout: Activity

- NC(N)=NCCC[C@@H]1NC(=O)[C@H](CCCN=C(N)N)NC(=O)[C@@H](Cc2ccc(O)cc2)N=C(N)CNC(=O)[C@H](Cc2ccc3ccccc3c2)NC1=O: Non-toxic
- NC(N)=NCCC[C@@H]1N=C(N)[C@@H](Cc2ccc(O)cc2)NC(=O)CNC(=O)[C@H](Cc2ccc3ccccc3c2)NC(=O)[C@H](CCCN=C(N)N)NC1=O: Non-toxic
- NC(N)=NCCC[C@@H]1N=C(N)[C@H](Cc2ccc(O)cc2)NC(=O)CNC(=O)[C@H](Cc2ccc3ccccc3c2)NC(=O)[C@H](CCCN=C(N)N)NC1=O: Non-toxic
